measured_target: GTVap (Rattus norvegicus, UniProt P97629)
Sequence (P97629 1-1025): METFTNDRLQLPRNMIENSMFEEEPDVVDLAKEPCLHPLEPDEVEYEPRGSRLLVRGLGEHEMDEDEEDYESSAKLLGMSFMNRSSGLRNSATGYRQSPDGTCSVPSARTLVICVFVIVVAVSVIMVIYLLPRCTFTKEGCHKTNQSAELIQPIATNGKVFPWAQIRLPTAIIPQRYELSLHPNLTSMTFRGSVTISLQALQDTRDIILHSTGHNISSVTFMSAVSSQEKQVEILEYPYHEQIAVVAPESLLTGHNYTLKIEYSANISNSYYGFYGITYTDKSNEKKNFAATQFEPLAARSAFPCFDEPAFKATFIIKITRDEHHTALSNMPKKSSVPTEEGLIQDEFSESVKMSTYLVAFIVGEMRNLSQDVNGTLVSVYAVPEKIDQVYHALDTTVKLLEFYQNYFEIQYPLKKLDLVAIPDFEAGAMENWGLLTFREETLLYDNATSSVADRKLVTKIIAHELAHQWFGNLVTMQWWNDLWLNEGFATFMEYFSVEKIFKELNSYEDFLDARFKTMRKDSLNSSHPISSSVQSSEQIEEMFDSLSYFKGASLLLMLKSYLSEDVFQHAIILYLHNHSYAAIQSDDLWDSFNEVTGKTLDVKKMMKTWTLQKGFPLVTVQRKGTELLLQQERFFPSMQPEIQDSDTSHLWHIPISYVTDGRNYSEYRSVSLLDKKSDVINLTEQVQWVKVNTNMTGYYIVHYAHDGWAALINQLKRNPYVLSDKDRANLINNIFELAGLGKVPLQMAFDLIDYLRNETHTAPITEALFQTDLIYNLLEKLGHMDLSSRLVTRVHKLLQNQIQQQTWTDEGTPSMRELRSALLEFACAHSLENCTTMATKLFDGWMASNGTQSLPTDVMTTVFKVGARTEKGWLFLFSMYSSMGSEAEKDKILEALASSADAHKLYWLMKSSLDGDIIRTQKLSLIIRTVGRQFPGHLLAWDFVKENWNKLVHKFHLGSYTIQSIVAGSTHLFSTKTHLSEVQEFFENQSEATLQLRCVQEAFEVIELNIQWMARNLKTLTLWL
Where a SMILES comes first, the peptide text is derived from it. The star is where a group is joined. CH2Cl = ClC*
readout_kind: IC50 (µM)

[I] CC(C)C[C@H](NC(=O)[C@@H](N)CC(C)C)C(=O)N[C@@H](Cc1ccccc1)C(=O)CCl [Leu-Leu-Phe-chloromethyl ketone] (H-Leu-Leu-Phe-CH2Cl)
[II] CC(C)C[C@H](N)CS [leuthiol, L-leucinethiol]
Endpoint returns the identifier whose IC50 is numerically larger, either I or II . Your answer should be the label of the entry you select.
I
